Biological target: T1, canine parietal cell gastrin receptor (recombinant, expressed from clone GR-1 in COS-7 cells) (canine)
T1 chain: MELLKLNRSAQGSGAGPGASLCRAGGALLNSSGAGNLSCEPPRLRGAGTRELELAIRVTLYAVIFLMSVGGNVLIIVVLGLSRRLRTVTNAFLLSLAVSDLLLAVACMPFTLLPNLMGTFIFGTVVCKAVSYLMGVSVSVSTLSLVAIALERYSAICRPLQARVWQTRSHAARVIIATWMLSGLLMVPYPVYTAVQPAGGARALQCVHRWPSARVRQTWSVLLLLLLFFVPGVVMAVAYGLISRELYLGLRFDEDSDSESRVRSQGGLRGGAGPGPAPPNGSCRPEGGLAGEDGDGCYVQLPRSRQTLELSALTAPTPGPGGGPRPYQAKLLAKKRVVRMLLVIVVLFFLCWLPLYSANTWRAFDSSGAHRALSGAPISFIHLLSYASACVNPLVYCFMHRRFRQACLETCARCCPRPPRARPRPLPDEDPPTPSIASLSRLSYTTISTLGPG
Test: competition with 40 pM 125I-CCK-8 on intact GR-1 transfected COS-7 cells
Square brackets hold non-standard residues; d marks the D form. Ends that are not written are not given here. sY = N[C@@H](Cc1ccc(OS(=O)(=O)O)cc1)C(=O)O
Metric: IC50 (nM)

(P) QGPWLEEEEEAYGWMDF-NH2 (ends and bridges not checked) [gastrin I]
(Q) D[sY]MGWMDF-NH2 [CCK-8 (unlabeled)]
Request: Between P and Q , which one shows the larger IC50 value? Your answer should be the label of the entry you select.
Result: P
